Tested on: HIV-1, GVK4046
Test Protocol: HIV-1 reproduction inhibition in MT-4 cell culture (p24 ELISA and MTT cell vitality, day 4)
Assay type: cell-based
Measurement Conditions: HIV-1, GVK4046 in MT-4 cell culture, 4 days; read-out: ID50 (the source's name)
Quantity: pIC50
Numbers only, as −log10 of the molar value.

Prompt line: Answer with reported pIC50 of Cc1cn([C@H]2C[C@H](N=[N+]=[N-])[C@@H](COP(=O)(O)C(N)=O)O2)c(=O)[nH]c1=O [Acid form (reference), reference compound]
Response line: 6.10
